test system: Escherichia coli, CECT 515; assay: agar diffusion, inhibition halo; type: cell-based; settings: 500 ppm
MEASURED ENDPOINT: inhibition halo diameter (mm)
Give the quantity in mm, number only.

Below, 3 compounds whose answers are already recorded.
[[record]]
compound = "C=CC1SC=CCS1 (stereo not shown) [2-vinyl-4H-1,3-dithiin]"
measured_endpoint = "inhibition halo diameter"
obs_value = 0

[[record]]
compound = "C=CC1CC=CSS1 (stereo not shown) [3-vinyl-4H-1,2-dithiin]"
measured_endpoint = "inhibition halo diameter"
obs_value = 0

[[record]]
compound = "C[C@@H]1C/C=C/C=C/C=C/C=C/[C@H](O[C@@H]2O[C@H](C)[C@@H](O)[C@H](N)[C@@H]2O)C[C@@H]2O[C@](O)(C[C@@H](O)C[C@H]3O[C@@H]3/C=C/C(=O)O1)C[C@H](O)[C@H]2C(=O)O [Pimaricin, pimaricin]"
measured_endpoint = "inhibition halo diameter"
obs_value = 0


Qu. Give the measured inhibition halo diameter of C=CCSSC=CC[S+]([O-])CC=C (mixture of isomers) [Ajoene, (E)-(Z)-ajoene] .
Ans. 11
